# MEASURED TARGET: Sodium channel protein type 4 subunit alpha (Homo sapiens, UniProt P35499)
# Sequence (P35499 whole entry): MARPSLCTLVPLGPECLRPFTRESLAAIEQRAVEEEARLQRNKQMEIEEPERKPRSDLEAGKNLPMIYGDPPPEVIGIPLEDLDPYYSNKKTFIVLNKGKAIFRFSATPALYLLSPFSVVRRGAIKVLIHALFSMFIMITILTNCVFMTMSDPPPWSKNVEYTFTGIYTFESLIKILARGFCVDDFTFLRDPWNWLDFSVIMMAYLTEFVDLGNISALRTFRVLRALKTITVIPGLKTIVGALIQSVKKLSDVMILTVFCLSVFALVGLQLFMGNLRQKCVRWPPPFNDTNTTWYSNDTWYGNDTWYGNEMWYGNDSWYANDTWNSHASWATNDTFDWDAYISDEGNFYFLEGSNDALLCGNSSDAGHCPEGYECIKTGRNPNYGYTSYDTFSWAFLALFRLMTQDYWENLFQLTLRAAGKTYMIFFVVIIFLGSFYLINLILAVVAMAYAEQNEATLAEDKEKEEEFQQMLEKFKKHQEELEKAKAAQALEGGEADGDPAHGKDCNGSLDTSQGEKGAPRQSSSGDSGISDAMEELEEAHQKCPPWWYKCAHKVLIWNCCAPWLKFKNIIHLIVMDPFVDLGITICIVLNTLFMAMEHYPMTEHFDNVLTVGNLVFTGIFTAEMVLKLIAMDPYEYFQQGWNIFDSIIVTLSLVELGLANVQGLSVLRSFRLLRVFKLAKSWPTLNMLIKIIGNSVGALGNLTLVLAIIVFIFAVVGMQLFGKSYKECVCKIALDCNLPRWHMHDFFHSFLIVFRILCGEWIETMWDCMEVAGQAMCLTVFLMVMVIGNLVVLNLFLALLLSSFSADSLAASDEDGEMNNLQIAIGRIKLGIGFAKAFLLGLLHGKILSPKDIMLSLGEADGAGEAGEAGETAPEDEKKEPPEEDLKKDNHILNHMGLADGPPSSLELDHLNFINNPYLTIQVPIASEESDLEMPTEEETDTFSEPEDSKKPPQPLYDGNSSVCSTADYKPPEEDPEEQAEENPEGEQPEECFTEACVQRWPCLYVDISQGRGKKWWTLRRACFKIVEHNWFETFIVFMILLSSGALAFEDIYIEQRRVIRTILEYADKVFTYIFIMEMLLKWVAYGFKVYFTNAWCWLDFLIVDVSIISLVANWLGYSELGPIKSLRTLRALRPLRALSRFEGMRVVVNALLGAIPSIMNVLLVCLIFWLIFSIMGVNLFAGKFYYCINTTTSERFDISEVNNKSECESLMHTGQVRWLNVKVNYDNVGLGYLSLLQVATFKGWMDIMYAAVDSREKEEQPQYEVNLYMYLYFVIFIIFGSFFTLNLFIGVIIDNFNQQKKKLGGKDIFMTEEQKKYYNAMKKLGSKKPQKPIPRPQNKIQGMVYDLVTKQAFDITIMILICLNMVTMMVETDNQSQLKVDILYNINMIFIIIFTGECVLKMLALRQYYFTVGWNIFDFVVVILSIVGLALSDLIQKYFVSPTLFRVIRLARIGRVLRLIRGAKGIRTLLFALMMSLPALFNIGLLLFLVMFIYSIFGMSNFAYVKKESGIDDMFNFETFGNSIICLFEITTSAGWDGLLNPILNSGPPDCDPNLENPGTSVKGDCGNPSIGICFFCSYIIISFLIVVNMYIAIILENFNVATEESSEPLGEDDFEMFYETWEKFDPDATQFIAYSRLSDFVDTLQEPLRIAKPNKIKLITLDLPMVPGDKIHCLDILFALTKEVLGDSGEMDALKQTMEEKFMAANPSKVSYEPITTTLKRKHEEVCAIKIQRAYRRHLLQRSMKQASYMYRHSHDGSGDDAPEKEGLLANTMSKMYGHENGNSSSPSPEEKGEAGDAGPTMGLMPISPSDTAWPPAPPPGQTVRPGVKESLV
# ASSAY SUMMARY: Inhibition of NaV1.4 (unknown origin) at 10 Hz frequency by whole cell manual patch clamp technique

- MOLECULE SMILES: "O=C1c2cc(-c3ccc(OC(F)(F)F)cc3)ccc2OCCN1Cc1ncccn1"
  IC50 (µM): 13

* * *

# ASSAY SUMMARY: Metabolic stability in dog microsomes assessed as half life
# Format: ADME, Canis lupus familiaris, Microsome
Binary classification by half-life, with 3 h as an inclusive lower bound for TRUE; all other cases are FALSE.

- MOLECULE SMILES: "O=C1c2cc(-c3ccc(C(F)(F)F)cc3)ccc2OCCN1Cc1ncccn1"
  CLASS LABEL: "TRUE"
- MOLECULE SMILES: "O=C1c2cc(-c3ccc(OC(F)(F)F)cc3)ccc2OCCN1Cc1ccccn1"
  CLASS LABEL: "FALSE"
- MOLECULE SMILES: "O=C1c2cc(-c3ccc(OC(F)(F)F)cc3)ccc2OCCN1Cc1ncccn1"
  CLASS LABEL: "TRUE"
- MOLECULE SMILES: "O=C1c2cc(-c3ccc(Cl)c(F)c3)ccc2OCCN1Cc1ncccn1"
  CLASS LABEL: "FALSE"
- MOLECULE SMILES: "O=C1c2cc(-c3ccc(C(F)(F)F)cc3)ccc2CCN1Cc1ncccn1"
  CLASS LABEL: "TRUE"
- MOLECULE SMILES: "O=C1c2cc(-c3ccc(Cl)cc3)ccc2OCCN1Cc1ncccn1"
  CLASS LABEL: "FALSE"
- MOLECULE SMILES: "O=C1c2cc(-c3ccc(OC(F)(F)F)cc3)ccc2OCCN1Cc1ncccc1F"
  CLASS LABEL: "TRUE"
- MOLECULE SMILES: "O=C1c2cc(-c3ccc(OC(F)(F)F)cc3)ccc2OCCN1CCc1ncccn1"
  CLASS LABEL: "FALSE"
- MOLECULE SMILES: "O=C1c2cc(-c3cccc(OC(F)(F)F)c3)ccc2OCCN1Cc1ncccn1"
  CLASS LABEL: "FALSE"
- MOLECULE SMILES: "COc1ccnc(CN2CCOc3ccc(-c4ccc(OC(F)(F)F)cc4)cc3C2=O)n1"
  CLASS LABEL: "FALSE"
- MOLECULE SMILES: "O=C1c2cc(-c3ccc(OC(F)(F)F)cc3)ccc2CCN1Cc1ncccn1"
  CLASS LABEL: "FALSE"
- MOLECULE SMILES: "O=C1c2cc(-c3ccc(OC(F)(F)F)cc3F)ccc2OCCN1Cc1ncccn1"
  CLASS LABEL: "FALSE"

* * *

# MEASURED TARGET: NaV1.5 (Homo sapiens)
# Sequence (Q14524 whole entry): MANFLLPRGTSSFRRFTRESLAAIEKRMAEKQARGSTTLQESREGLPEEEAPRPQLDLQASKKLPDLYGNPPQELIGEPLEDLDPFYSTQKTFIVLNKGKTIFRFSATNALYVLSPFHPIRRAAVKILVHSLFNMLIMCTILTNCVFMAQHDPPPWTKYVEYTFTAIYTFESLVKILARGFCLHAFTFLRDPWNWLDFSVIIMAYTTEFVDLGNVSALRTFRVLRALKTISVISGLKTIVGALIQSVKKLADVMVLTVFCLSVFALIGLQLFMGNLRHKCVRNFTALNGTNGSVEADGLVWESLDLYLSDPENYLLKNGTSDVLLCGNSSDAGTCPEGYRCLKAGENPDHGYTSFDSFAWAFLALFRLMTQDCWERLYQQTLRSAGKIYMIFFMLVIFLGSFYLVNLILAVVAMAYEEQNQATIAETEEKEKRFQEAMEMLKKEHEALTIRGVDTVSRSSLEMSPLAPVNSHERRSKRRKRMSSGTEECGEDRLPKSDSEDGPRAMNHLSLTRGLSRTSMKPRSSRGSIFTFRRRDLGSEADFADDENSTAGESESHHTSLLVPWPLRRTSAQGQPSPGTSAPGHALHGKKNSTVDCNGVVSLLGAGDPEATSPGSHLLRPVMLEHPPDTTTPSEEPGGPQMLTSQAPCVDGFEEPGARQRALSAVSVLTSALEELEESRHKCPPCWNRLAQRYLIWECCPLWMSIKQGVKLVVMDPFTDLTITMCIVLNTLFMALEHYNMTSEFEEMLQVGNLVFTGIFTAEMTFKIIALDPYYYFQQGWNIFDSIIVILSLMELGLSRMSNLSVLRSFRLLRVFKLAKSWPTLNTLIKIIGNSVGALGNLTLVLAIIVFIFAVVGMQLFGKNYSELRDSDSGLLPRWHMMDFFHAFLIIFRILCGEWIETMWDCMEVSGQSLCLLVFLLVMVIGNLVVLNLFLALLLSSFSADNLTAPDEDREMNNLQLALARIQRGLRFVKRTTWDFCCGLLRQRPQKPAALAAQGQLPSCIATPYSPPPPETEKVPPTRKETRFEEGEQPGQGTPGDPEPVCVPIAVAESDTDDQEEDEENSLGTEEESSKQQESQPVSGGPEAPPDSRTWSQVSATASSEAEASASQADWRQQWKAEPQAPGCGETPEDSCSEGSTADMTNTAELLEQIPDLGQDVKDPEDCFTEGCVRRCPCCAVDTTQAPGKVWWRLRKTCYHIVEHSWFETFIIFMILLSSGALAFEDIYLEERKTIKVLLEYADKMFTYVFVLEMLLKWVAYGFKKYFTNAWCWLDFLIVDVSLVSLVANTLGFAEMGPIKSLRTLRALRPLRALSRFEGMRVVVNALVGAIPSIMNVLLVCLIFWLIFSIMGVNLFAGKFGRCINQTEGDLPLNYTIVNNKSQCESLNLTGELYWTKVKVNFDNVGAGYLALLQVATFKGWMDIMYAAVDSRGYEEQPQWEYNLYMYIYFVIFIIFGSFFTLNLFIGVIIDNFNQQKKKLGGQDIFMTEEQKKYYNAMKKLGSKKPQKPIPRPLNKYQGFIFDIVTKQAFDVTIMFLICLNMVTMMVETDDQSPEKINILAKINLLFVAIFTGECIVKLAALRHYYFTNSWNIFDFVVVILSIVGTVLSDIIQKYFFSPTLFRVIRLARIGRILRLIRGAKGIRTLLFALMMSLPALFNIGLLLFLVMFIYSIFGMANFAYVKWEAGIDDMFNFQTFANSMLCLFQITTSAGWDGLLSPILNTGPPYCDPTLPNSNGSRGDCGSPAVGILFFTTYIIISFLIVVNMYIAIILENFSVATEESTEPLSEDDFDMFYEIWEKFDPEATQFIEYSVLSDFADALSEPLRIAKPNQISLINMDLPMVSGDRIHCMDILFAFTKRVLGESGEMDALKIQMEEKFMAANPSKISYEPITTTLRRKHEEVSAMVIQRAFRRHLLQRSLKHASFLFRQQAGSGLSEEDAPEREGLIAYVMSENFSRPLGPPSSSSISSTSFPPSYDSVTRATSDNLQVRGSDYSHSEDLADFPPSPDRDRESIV
# ASSAY SUMMARY: Inhibition of human NaV1.5 expressed in HEK293 cells assessed as inhibition of peak sodium current measured at frequency 3 Hz at -20 mV resting membrane potential at 1 uM by electrophysiology assay relative to control
# Type: cell-based
# CONDITION DESCRIPTION: HEK293 cells expressing human NaV1.5
Let's look at some compounds and their measured inhibition at 1 µM.

- MOLECULE SMILES: "COc1ccnc(CN2CCOc3ccc(-c4ccc(OC(F)(F)F)cc4)cc3C2=O)n1"
  inhibition at 1 µM, %: 27
- MOLECULE SMILES: "O=C1c2cc(-c3ccc(Cl)c(F)c3)ccc2OCCN1Cc1ncccn1"
  inhibition at 1 µM, %: 8
